Tested on: PANC1
Assay: Cell proliferation assay MTT, PANC1
Details: read-out: Cytotoxicity IC50 Pancreas PANC1, 72 hr treated
// reported pIC50 per item
// pIC50 here means minus log10 of the molar concentration (mol/L)

Some entries whose results are on file:
O=C(NO)c1ccc(Cn2c(=O)n(CCc3ccccc3)c(=O)c3ccccc32)cc1; 5.38
O=C(NO)c1ccc(Cn2c(=O)n(CCc3ccccc3)c(=O)c3ccc(C(F)(F)F)cc32)cc1; 5.08

(Q) Tell me its pIC50 given O=C(NO)c1ccc(Cn2c(=O)n(CCc3ccccc3)c(=O)c3cc(Cl)ccc32)cc1 as the entry.
(A) 5.39

Origin of measurements: patent US11535598B2
